System: PC-3
Experiment: NCI tumour cell line growth inhibition, 48 h
Calls of active or inactive are those of the source. Cut-off read from the data, not from the text of the source: active = GI50 up to about 1.1 µM and inactive = higher.
Would you kindly list GI50 for each of these compounds?

Dear colleague, could you send me GI50 for each of the items below? Thanks.
1. COC1C(OC(C)=O)CC(=O)OC(C)C/C=C/C=C\C(O)C(C)CC(CC=O)C1OC1OC(C)C(OC2CC(C)(O)C(OC(=O)CC(C)C)C(C)O2)C(N(C)C)C1O (centres undefined)
2. O=[N+]([O-])c1ccc2ncccc2c1CCc1c([N+](=O)[O-])ccc2ncccc12
3. CC(=O)O[C@H]1C(=O)[C@@]2(C)[C@H]([C@H](OC(=O)c3ccccc3)[C@]3(O)C[C@H](OC(=O)[C@H](O)[C@@H](NC(=O)c4ccccc4)c4ccccc4)C(C)=C1C3(C)C)[C@]1(OC(C)=O)CO[C@@H]1C[C@@H]2O

Result:
1: 79.6 µM (inactive); 2: > 100 µM (inactive); 3: 0.0182 µM (active)

Dear colleague, could you send me GI50 for each of the items below? Thanks.
1. CO[C@H]1C[C@@H]2CC[C@@H](C)[C@@](O)(O2)C(=O)C(=O)N2CCCC[C@H]2C(=O)O[C@H]([C@H](C)C[C@@H]2CC[C@@H](O)[C@H](OC)C2)CC(=O)[C@H](C)C=C(C)[C@@H](O)[C@@H](OC)C(=O)[C@H](C)C[C@H](C)/C=C/C=C/C=C1C
2. OC1(c2ccccc2)C2CCN(CC2)C1CN1CCOCC1 (centres undefined)
3. COc1cccc(-c2cc(=O)c3ccccc3o2)c1N

Result:
0.0211 µM (active)
> 100 µM (inactive)
> 23.6 µM (inactive)

Dear colleague, could you send me GI50 for each of the items below? Thanks.
1. O=C(CC(=O)n1nc(-c2ccccc2)c(/N=N/c2ccccc2C(=O)O)c1-c1ccccc1)Nc1ccc(Cl)cc1
2. CC#CC(=O)SCCNC(=O)CC

Result:
1: 27.5 µM (inactive); 2: > 10 µM (inactive)
